# Measurement Description: Stability in human plasma assessed as half-life
# Type: ADME, cell-free
Rule for this label: yes means t1/2 is less than 3 h; no means t1/2 is at least 3 h.

COc1ccc2c(c1)c(CC(=O)OC[C@H]1O[C@@](C#N)(c3ccc4c(N)ncnn34)[C@H](O)[C@@H]1O)c(C)n2C(=O)c1ccc(Cl)cc1 :: yes
CC(C(=O)OC[C@H]1O[C@@](C#N)(c2ccc3c(N)ncnn23)[C@H](O)[C@@H]1O)c1cccc(Oc2ccccc2)c1 (stereo partly specified) :: yes
N#C[C@@]1(c2ccc3c(N)ncnn23)O[C@H](COC(=O)Cc2ccccc2Nc2c(Cl)cccc2Cl)[C@@H](O)[C@H]1O :: no

input: A record lists CC(C)Cc1ccc(C(C)C(=O)OC[C@H]2O[C@@](C#N)(c3ccc4c(N)ncnn34)[C@H](O)[C@@H]2O)cc1 (stereo partly specified) . Is its t1/2 below 3 h?
output: no

input: A record lists CC(C(=O)OC[C@H]1O[C@@](C#N)(c2ccc3c(N)ncnn23)[C@H](O)[C@@H]1O)c1cccc(C(=O)c2ccccc2)c1 (stereo partly specified) . Is its t1/2 below 3 h?
output: no

----------
# Measurement Description: Cmax in Sprague-Dawley rat at 25 mg/kg, po administered as single dose and measured at 0.25 to 24 hrs by LC-MS/MS analysis
# Format: ADME, organism-based
# Parameters: dose 25 mg/kg, time 0.25-24 hrs, route po
# Condition Details: in vivo
Provide the reported Cmax of each item.
Answers are plain numbers, in µM.

CC(C)Cc1ccc(C(C)C(=O)O)cc1 (configuration not stated) :: 80.2

Okay, now this compound:
input: Recall and state the measured Cmax for N#C[C@@]1(c2ccc3c(N)ncnn23)O[C@H](CO)C(O)C1O (single isomer, unassigned) .
output: 7.75

----------
# Tested on: Canine coronavirus
# Measurement Description: Antiviral activity against Canine coronavirus infected in CRFK cells assessed as reduction in viral copy pre-infected with cells for 1 hrs followed by compound addition and measured after 48 hrs by RT-qPCR analysis
# Assay type: functional, organism-based
# Condition Details: Alphacoronavirus 1, CRFK
Measurement Type: pEC50
One number for each entry, as −log10 of the molar value.

input: Recall and state the measured pEC50 for CC(C)Cc1ccc(C(C)C(=O)OC[C@H]2O[C@@](C#N)(c3ccc4c(N)ncnn34)[C@H](O)[C@@H]2O)cc1 (stereo partly specified) .
output: 5.85

----------
# Measurement Description: Solubility of the compound
# Format: physicochemical
Provide the reported solubility of each item.
Numbers only, in µM.

// worked examples, solubility included
CC(C(=O)OC[C@H]1O[C@@](C#N)(c2ccc3c(N)ncnn23)[C@H](O)[C@@H]1O)c1cccc(C(=O)c2ccccc2)c1 (stereo partly specified) :: 1070
CC(C(=O)OC[C@H]1O[C@@](C#N)(c2ccc3c(N)ncnn23)[C@H](O)[C@@H]1O)c1cccc(Oc2ccccc2)c1 (stereo partly specified) :: 29

For every listed record, write down its solubility.
1. CC(C)Cc1ccc(C(C)C(=O)OC[C@H]2O[C@@](C#N)(c3ccc4c(N)ncnn34)[C@H](O)[C@@H]2O)cc1 (stereo partly specified)
2. COc1ccc2c(c1)c(CC(=O)OC[C@H]1O[C@@](C#N)(c3ccc4c(N)ncnn34)[C@H](O)[C@@H]1O)c(C)n2C(=O)c1ccc(Cl)cc1

output:
1: 49.9; 2: 0.1

For every listed record, write down its solubility.
1. N#C[C@@]1(c2ccc3c(N)ncnn23)O[C@H](COC(=O)Cc2ccccc2Nc2c(Cl)cccc2Cl)[C@@H](O)[C@H]1O
2. COc1ccc2cc([C@H](C)C(=O)OC[C@H]3O[C@@](C#N)(c4ccc5c(N)ncnn45)[C@H](O)[C@@H]3O)ccc2c1

output:
[3.7, 155]
